The reported measurements were obtained from patent US20050249857A1.

Assay: Phase-solubility study of HMR with HP-β-CD
Assay type: physicochemical
Conditions: acetate buffer, 25 °C, pH 5, aqueous with cosolvent or surfactant or cyclodextrin, thermodynamic from solid, HP-β-CD 10 g/100 ml; 0.16 M acetate buffer pH 5.0, μ = 0.5, 25° C., equilibration 72 hours
Protocol: The phase solubility studies with HMR was also performed with HP-β-CD (0-10%). In the case of HP-β-CD the equilibration time was 72 hours.
Observed property: solubility at 72 h (mg/mL)
Form entry: value (mg/mL) — number only.

Supply recorded solubility at 72 h for COc1cc(C[C@H]2C(=O)OC[C@@H]2[C@H](O)c2ccc(O)c(OC)c2)ccc1O [HMR, hydroxymatairesinol] here.
26.8

* * *

Experiment: Phase-solubility study of HMR with HP-β-CD
Assay type: physicochemical
Conditions: acetate buffer, 25 °C, pH 5, aqueous with cosolvent or surfactant or cyclodextrin, thermodynamic from solid, HP-β-CD 1 g/100 ml; 0.16 M acetate buffer pH 5.0, μ = 0.5, 25° C., equilibration 72 hours
Observed property: solubility at 72 h (mg/mL)
Form entry: value (mg/mL) — number only.

Supply recorded solubility at 72 h for COc1cc(C[C@H]2C(=O)OC[C@@H]2[C@H](O)c2ccc(O)c(OC)c2)ccc1O [HMR, hydroxymatairesinol] here.
14.9

* * *

Assay: Chemical stability of HMR in acetate buffer with and without 2% γ-CD
Format: physicochemical
Details: acetate buffer, pH 5, 0.16 M acetate buffer pH 5.0, 30° C., without γ-CD; read-out: half-life t1/2 for chemical degradation (converted)
Observed property: half-life (days)
Form entry: value (days) — number only.

Supply recorded half-life for COc1cc(C[C@H]2C(=O)OC[C@@H]2[C@H](O)c2ccc(O)c(OC)c2)ccc1O [HMR, hydroxymatairesinol] here.
41.8

* * *

Experiment: physchem
Settings: 25 °C, pH 5, aqueous buffer, thermodynamic from solid
Observed property: solubility at 24 h

                                   compound   observed_property  test_result
0  COc1cc(C[C@H]2C(=O)OC[C@@H]2[C@H](O)c2ccc(O)c(OC)c2)ccc1O [HMR, hydroxymatairesinol]  solubility at 24 h   6700 µg/mL

Let's switch to this compound now.
Supply recorded solubility at 24 h for COc1cc(C[C@H]2COC(=O)[C@@H]2Cc2ccc(O)c(OC)c2)ccc1O here.
490 µg/mL

* * *

Assay: Phase-solubility study of HMR with HP-β-CD
Format: physicochemical
Settings: acetate buffer, 25 °C, pH 5, aqueous with cosolvent or surfactant or cyclodextrin, thermodynamic from solid, HP-β-CD 5 g/100 ml; 0.16 M acetate buffer pH 5.0, μ = 0.5, 25° C., equilibration 72 hours
Observed property: solubility at 72 h (mg/mL)
Form entry: value (mg/mL) — number only.

Supply recorded solubility at 72 h for COc1cc(C[C@H]2C(=O)OC[C@@H]2[C@H](O)c2ccc(O)c(OC)c2)ccc1O [HMR, hydroxymatairesinol] here.
20.2

* * *

Experiment: Phase-solubility study of HMR with HP-β-CD
Format: physicochemical
Conditions: acetate buffer, 25 °C, pH 5, aqueous buffer, thermodynamic from solid, HP-β-CD 0 g/100 ml; 0.16 M acetate buffer pH 5.0, μ = 0.5, 25° C., equilibration 72 hours
Observed property: solubility at 72 h (mg/mL)
Form entry: value (mg/mL) — number only.

Supply recorded solubility at 72 h for COc1cc(C[C@H]2C(=O)OC[C@@H]2[C@H](O)c2ccc(O)c(OC)c2)ccc1O [HMR, hydroxymatairesinol] here.
14.6

* * *

Experiment: Phase-solubility study of HMR with HP-β-CD
Format: physicochemical
Settings: acetate buffer, 25 °C, pH 5, aqueous with cosolvent or surfactant or cyclodextrin, thermodynamic from solid, HP-β-CD 2 g/100 ml; 0.16 M acetate buffer pH 5.0, μ = 0.5, 25° C., equilibration 72 hours
Observed property: solubility at 72 h (mg/mL)
Form entry: value (mg/mL) — number only.

Supply recorded solubility at 72 h for COc1cc(C[C@H]2C(=O)OC[C@@H]2[C@H](O)c2ccc(O)c(OC)c2)ccc1O [HMR, hydroxymatairesinol] here.
14.9
